tested.target: AMPA (GluR1) receptor (Homo sapiens, UniProt P42261)
Sequence (P42261 19-906 isoform P42261-2 limits assumed, species assumed): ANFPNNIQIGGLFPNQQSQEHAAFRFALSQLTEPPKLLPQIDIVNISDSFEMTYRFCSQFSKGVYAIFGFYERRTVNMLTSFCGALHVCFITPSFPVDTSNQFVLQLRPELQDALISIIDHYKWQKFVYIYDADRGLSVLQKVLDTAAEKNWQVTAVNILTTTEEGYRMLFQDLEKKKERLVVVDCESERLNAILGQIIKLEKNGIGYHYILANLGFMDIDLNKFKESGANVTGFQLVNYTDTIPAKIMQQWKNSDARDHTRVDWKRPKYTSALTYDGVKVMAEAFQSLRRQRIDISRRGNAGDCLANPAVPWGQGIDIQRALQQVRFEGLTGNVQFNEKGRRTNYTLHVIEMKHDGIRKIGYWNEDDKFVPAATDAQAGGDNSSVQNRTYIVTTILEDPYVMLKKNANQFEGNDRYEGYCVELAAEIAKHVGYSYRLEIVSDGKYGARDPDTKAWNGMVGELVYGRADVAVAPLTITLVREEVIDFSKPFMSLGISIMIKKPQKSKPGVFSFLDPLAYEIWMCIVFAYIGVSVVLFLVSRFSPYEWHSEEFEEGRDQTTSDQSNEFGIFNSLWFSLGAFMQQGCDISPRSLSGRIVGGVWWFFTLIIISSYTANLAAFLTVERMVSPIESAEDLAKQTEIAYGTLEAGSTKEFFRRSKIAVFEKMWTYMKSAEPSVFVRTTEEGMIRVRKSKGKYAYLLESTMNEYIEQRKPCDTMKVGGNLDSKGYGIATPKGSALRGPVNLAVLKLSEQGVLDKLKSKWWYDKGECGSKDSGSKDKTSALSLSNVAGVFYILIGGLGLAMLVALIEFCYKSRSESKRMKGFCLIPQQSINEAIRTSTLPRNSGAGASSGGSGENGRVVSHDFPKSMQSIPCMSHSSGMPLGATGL
experimental.protocol: Ca2+ influx fluorescence assay (FLEXstation, Fluo-3)
stated.conditions: HEK.GluR1(i) cells, glutamate +/- test compound, Ca2+ influx measured with fluo3; read-out: EC50, positive modulation of the AMPA receptor
pEC50: −log10 of the molar value.

# molecule, pEC50
records = [
    ("O=S(=O)(N[C@H]1Cc2ccc(Cn3cc(CO)c(C(F)(F)F)n3)cc2C1)c1ccco1 [Example 18]", 5.60),
]
